The measured values listed here are drawn from PubChem BioAssay.

Test system: Fibrinogen (Alexa647-labelled)
Assay: fibrinogen binders on compound microarrays, profiling panel, artefact control for SMM control-protein annotation, biochemical, small-molecule microarray, 635/667 nm fluorescence (AID 1131);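 note: z-score merges 667 nm fluorescence with per-spot signal-to-noise over triplicate slides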
Conditions: fibrinogen-A647 binding fluorescence, higher = more signal
Each entry gets no if its composite z-score stays under 0.01, and yes if its composite z-score is 0.01 or above.

molecule	classification
O=C1NC(=O)C2C1C=CC(C(O)C(c1ccccc1)c1ccccc1)N2Nc1ccccn1 (configuration not stated)	yes
O=C(NC1CC1)[C@@H]1c2ccccc2C(=O)N(C2CCCCC2)[C@H]1c1ccc(CO)cc1	no
COC(=O)C(CC#Cc1ccc2c(c1)[C@]1(C(=O)N2)[C@H](C(=O)NC[C@H](O)c2ccccc2)[C@H]2C(=O)O[C@H](c3ccccc3)[C@H](c3ccccc3)N2[C@@H]1c1ccc(O)cc1)C(=O)OC	no
CO[C@H]1O[C@H](CO)[C@@H](OC(=O)Nc2ccccc2)[C@@H]2OC(=O)[C@@H](Cc3ccccc3)C/C=C/C[C@H](Cc3ccccc3)C(=O)O[C@@H]12	yes

Enquiry: Could you tell me if the measured composite z-score of CCCCCCCCCCC(O)C1C=CC2C(=O)N(C)C(=O)C2N1Nc1ccccc1 (configuration not stated) reaches 0.01 or more?
Return: no

----------
Reported composite z-score values for a set of compounds
Test: small-molecule microarray binders of probe aWnt5a, primary screen, biochemical, biotinylated probe, 635/667 nm fluorescence (AID 1113);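 note: score merges 667 nm fluorescence intensity with signal-to-noise per printed feature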
Details: higher = more signal
# respond with the number and nothing more

Here's what some known entries look like.
compound	composite z-score
C[C@]1(C(=O)O)c2ccccc2C(=O)N(Cc2cc(C(F)(F)F)cc(C(F)(F)F)c2)[C@H]1c1ccc(CO)cc1	-0.145
O=C1NC(=O)C2C1C=CC(C(O)C1CCCCC1)N2Nc1ccccn1 (stereo not drawn)	-0.0478
C=CCN1C(=O)[C@@]2(O[C@@H](CCO)[C@H]([Si](C)(C)c3ccc(OC)cc3)[C@H]2C)c2cc(N3CCCCC3=O)ccc21	-0.091
N#Cc1ccc(NN2C(C(O)c3ccc(B(O)O)cc3)C=CC3CN(c4ccccc4)C(=O)C32)cc1 (stereo not drawn)	-0.144
COc1ccc(NN2C(C(O)c3ccccc3)C=CC3C(=O)N(C4CCCCC4)C(=O)C32)cc1 (stereo not drawn)	0.0974

Enquiry: Quick one: composite z-score for [N-]=[N+]=Nc1ccccc1C[C@]1(C(N)=O)COC(c2ccc(OCCCO)cc2)=N1 ?
Return: -0.0462

Enquiry: Quick one: composite z-score for CC(C)C[C@@H]1NC(=O)[C@@H]2C[C@H](C(=O)NCCCCCCNC(=O)CS)[C@H](c3ccc(O)cc3)N2C1=O ?
Return: -0.0495

Enquiry: Quick one: composite z-score for CO[C@H]1O[C@H](CO)[C@@H](OC(=O)CCc2ccccc2)[C@@H]2OC(=O)[C@@H](Cc3ccc4ccccc4c3)C/C=C/C[C@H](Cc3ccc4ccccc4c3)C(=O)O[C@@H]12 ?
Return: -0.202

----------
Experiment: COS7 lysate on small-molecule microarray, probe aHis, 635 nm (AID 1123);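 note: z-score combines 667nm fluorescence intensity with signal-to-noise per printed compound spot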
Settings: COS7 cell lysate, fluorescence, higher = more signal
Each entry gets Criterion not met if its composite z-score stays under 2, and Criterion met if its composite z-score is 2 or above.

molecule	classification
CC1C2C(CCCO)=CC(C3C(=O)N(C(N)=O)C(=O)C23)N1Cc1cccc(OC(F)(F)F)c1 (stereo not drawn)	Criterion not met

Okay, now this molecule:
Enquiry: Could you tell me if the measured composite z-score of COC(=O)C1=CC(c2ccc(CO)cc2)=CC(C2CC2)N(Cc2cc3c(cc2Br)OCO3)C=C1C(=O)OC (stereo not drawn) reaches 2 or more?
Return: Criterion met
